z-score for assorted compounds
test-details: optical density shifts of acrAB sulA E. coli – strain DRC41, OD650, 48 h, E. coli filamentation inducer project, primary screen (AID 1152);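 note: E. coli MC1000 strain DRC41 lacking acrAB efflux pump and sulA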
condition-set: higher = more signal, called active from +8 up or from −8 down
Could you keep your reply to the number by itself?

- COC(=O)[C@]1(CCC(=O)OC(C)(C)C)N=C(c2ccc(OCCCO)cc2)O[C@@H]1c1ccccc1: 0.687
- COCC(=C=CC[C@H](O)c1cccc(OCCO)c1)C[C@H](O)c1cc(Cl)cc(Cl)c1O: 0.652
- O=C1OCCC=C[C@H]2OC34C=CCN(c5ccc(Cl)cc5)C(=O)[C@H]3N(CCCO)C(=O)[C@@H]4C12 (some centres not stated): 0.565
- COc1ccc([Si](C)(C)[C@@H]2[C@@H](CC(=O)N3CCC[C@H]3CO)O[C@]3(C(=O)N(Cc4cccc(I)c4)c4ccccc43)[C@H]2C)cc1: -0.423
- CC(=O)NCCCC[C@@H]1NC(=O)[C@H]2C[C@@H](C(=O)O)[C@@H](c3ccc(O)cc3)N2C1=O: -0.73

Specify reported z-score for the compound shown: CC(C)CNC(=O)[C@@]1(Cc2ccccc2I)c2ccccc2C(=O)N(Cc2ccccc2C(F)(F)F)[C@H]1c1ccc(CO)cc1 0.0655

Give recorded z-score. CC(C)[Si](C#CCCCC#N)(Oc1ccccc1Br)C(C)C -0.4

Give me measured z-score, please, for this compound: O=C1[C@H]2C=C(I)[C@H](C[C@@H]2OCCCCO)[C@@]12CO2 -0.989

Respond only with z-score recorded for CCCC(=O)N(CCc1c[nH]c2ccccc12)[C@@H]1CC(C(=O)NCCO)=C[C@H](Oc2c(I)cc(CO)cc2OC)[C@H]1O 1.57

Fill in z-score for record COc1cc2c(cc1O)C(c1cccs1)N(Cc1ccc([N+](=O)[O-])o1)CC2 (configuration not stated) 1.9

Quote z-score reported for COCCCNC(=O)[C@@]1(CCS(=O)(=O)c2ccccc2)N=C(c2ccc(OCCCO)cc2)O[C@H]1c1ccccc1N=[N+]=[N-] please. 1.12

# return recorded z-score for input COc1ccc(C(O)C2C=CC3C(=O)N(C)C(=O)C3N2N(c2ccccc2)c2ccccc2)c2ccccc12 (configuration not stated) -1.24

Find the measured z-score of O=C(CS)NCCCCCNC(=O)[C@H]1C[C@H]2C(=O)NCC(=O)N2[C@H]1c1ccc(O)cc1 and report it. 1.43

* * *

test-details: hepatitis C replication reporter changes, two-sided – Huh7 cells, luciferase reporter, HCV replication inhibitor project, primary screen (AID 1109);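 note: huh7 hepatoma cells harbouring a luciferase neomycin HCV replicon reporter; luciferase luminescence as measure of HCV replicon replication; test concentration not given here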
condition-set: Huh7 HCV replicon luciferase reporter, 48 h; higher = more signal
Entries and their z-score values follow.

• NCCCCCNC(=O)[C@H]1C[C@H]2C(=O)N[C@@H](Cc3ccccc3)C(=O)N2[C@H]1c1cccc(OCCO)c1 = -0.82
• CCOc1ccc(N2C(=O)CSC2c2cccc([N+](=O)[O-])c2)cc1 (stereo not drawn) = -0.343
• COc1ccc(C#Cc2ccc3c(c2)[C@]2(C(=O)N3)[C@H](c3ccc(O)cc3)N3[C@H](c4ccccc4)[C@H](c4ccccc4)OC(=O)[C@H]3[C@@H]2C(=O)N2CCc3cc(OC)c(OC)cc3C2)cc1 = -1.11

// fetch z-score given entry C=CCC(OC(C)=O)[C@@H]1[C@@H](N(Cc2ccc(-c3ccccc3)cc2)C(=O)Cc2ccc(F)cc2)c2cc(OCCCO)ccc2N1C(=O)c1ccc2ccccc2c1 (stereo partly drawn) -0.381

Answer with the recorded z-score of O=C(CS)NCCCCCNC(=O)[C@H]1C[C@H]2C(=O)NCC(=O)N2[C@H]1c1cccc(OCCO)c1 only. 1.34

Identify the reported z-score for the following entry. O=C1[C@@]23C=C(Br)[C@H](C[C@@H]2COC3)[C@]12CO2 -1.96

Provide one value: measured z-score of COCCCNC(=O)[C@@]1(Sc2ccc(C)cc2)CC(=O)N(Cc2ccccc2Cl)[C@@H]1c1ccc(CO)cc1 -1.75

// fetch z-score given entry COc1ccc([C@H]2OC[C@@H]3CCC(=O)N32)cc1 0.574

Value source: PubChem BioAssay
